tested on: Mycobacterium tuberculosis; assay: Antitubercular activity against d-cycloserine-resistant Mycobacterium tuberculosis after 7 days by resazurin dye based colorimetric assay; assay type: functional; conditions: 168 h
Attribute: MIC

# COMPOUND STRING, ASSAYED SYSTEM, MIC
rows = [
    ("COc1c(N2C[C@@H]3CCCN[C@@H]3C2)c(F)cc2c(=O)c(C(=O)O)cn(C3CC3)c12", "Mycobacterium tuberculosis", "0.46 µg/mL"),
    ("CC(=O)NC[C@H]1CN(c2ccc(N3CCOCC3)c(F)c2)C(=O)O1", "Mycobacterium tuberculosis", "10.3 µg/mL"),
    ("CC(C)c1ccc(-c2nc(CN3CCN(c4ccnc5cc(Cl)ccc45)CC3)no2)cc1", "Mycobacterium tuberculosis", "3.68 µg/mL"),
    ("CO[C@H]1/C=C/O[C@@]2(C)Oc3c(C)c(O)c4c(O)c(c(/C=N/N5CCN(C)CC5)c(O)c4c3C2=O)NC(=O)/C(C)=C\\C=C\\[C@H](C)[C@H](O)[C@@H](C)[C@@H](O)[C@@H](C)[C@H](OC(C)=O)[C@@H]1C", "Mycobacterium tuberculosis", "< 0.02 µg/mL"),
    ("NNC(=O)c1ccncc1", "Mycobacterium tuberculosis", "3.78 µg/mL"),
]
